Target: NKp30 on human NK cells (human) (UniProt O14931)
Sequence (O14931 19-201): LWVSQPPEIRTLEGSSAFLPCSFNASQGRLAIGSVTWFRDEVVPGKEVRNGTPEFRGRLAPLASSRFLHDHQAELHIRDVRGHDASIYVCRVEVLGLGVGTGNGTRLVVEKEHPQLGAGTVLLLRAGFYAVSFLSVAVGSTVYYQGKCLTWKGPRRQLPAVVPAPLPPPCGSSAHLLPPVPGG
Experiment: cell-based or functional assay
attribute measured: EC50 improvement compared to ΔB7-H6 wt (fold)
Reply with just the number (in fold).

Qu. Output measured EC50 improvement compared to ΔB7-H6 wt for this item: ΔB7-H6_wt-SEED-PGLALA (bispecific antibody, part only; not given: SEED Fc chains and hu225 Fab, part only) chain, part: DLKVEMMAGGTQITPLNDNVTIFCNIFYSQPLNITSMGITWFWKSLTFDKEVKVFEFFGDHQEAFRPGAIVSPWRLKSGDASLRLPGIQLEEAGEYRCEVVVTPLKAQGTVQLEVVASPAS
Ans. 1

Qu. Indicate its recorded EC50 improvement compared to ΔB7-H6 wt; the binder in question is ΔB7-H6_S3#21-SEED-PGLALA (bispecific antibody, part only; not given: SEED Fc chains and hu225 Fab, part only) chain, part: DLKVEMMAGGTQITPLNDNVTIFCNIFYSQPLNITLMGITWFWKSLTFDKEVKVFEFWGDHQEAFRPGAIVSPWRLKSGDASLRLPGIQLEEAGEYRCEVVVTPYKAQGTVQLEVVASPAS
Ans. 24

Qu. Give EC50 improvement compared to ΔB7-H6 wt for ΔB7-H6_S3#22-SEED-PGLALA (bispecific antibody, part only; not given: SEED Fc chains and hu225 Fab, part only) chain, part: DLKVEMMAGGTQITPLNDNVTIFCNIFYSQPLNITEMGITWFWKSLTFDKEVKVFEFWGDHQEAFRPGAIVSPWRLKSGDASLRLPGIQLEEAGEYRCEVVVTPYKAQGTVQLEVVASPAS
Ans. 8

Qu. Respond only with EC50 improvement compared to ΔB7-H6 wt recorded for ΔB7-H6_S3#18-SEED-PGLALA (bispecific antibody, part only; not given: SEED Fc chains and hu225 Fab, part only) chain, part: DLKVEMMAGGTQITPLNDNVTIFCNIFYSQPLNITYMGITWFWKSLTFDKEVKVFEFWGDHQEAFRPGAIVSPWRLKSGDASLRLPGIQLEEAGEYRCEVVVTPYKAQGTVQLEVVASPAS
Ans. 44
